// provenance: the supplement of paper PMC8728848

# target_desc: Man(a1-2)Man(a1-6)[Man(a1-3)]Man(a1-6)[Man(a1-2)Man(a1-2)Man(a1-3)]Man
# run_description: glycan array binding signal (z-score within array); higher = stronger binding
# measurement_parameters: glycan notation: IUPAC condensed, linker removed
Shown is part of a subset that was picked to be rich in the strongest signals.
Cut-off -0.3 on glycan array binding signal (z-score), inclusive. At or above means true; below means false.

Sample answers from the record:
- binder: "NKp30 (Homo sapiens), O14931 (protein) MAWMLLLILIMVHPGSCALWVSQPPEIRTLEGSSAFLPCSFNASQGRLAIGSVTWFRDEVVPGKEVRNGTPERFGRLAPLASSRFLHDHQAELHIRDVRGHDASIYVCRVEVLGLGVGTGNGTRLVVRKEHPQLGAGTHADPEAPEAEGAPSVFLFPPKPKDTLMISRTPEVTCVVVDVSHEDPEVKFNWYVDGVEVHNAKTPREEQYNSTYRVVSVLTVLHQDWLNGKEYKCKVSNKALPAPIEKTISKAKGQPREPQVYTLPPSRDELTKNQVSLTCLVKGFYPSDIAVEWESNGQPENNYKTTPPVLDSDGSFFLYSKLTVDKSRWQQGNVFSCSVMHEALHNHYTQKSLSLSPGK"
  group_label: "false"
- binder: "CTLY 1 (Homo sapiens), Q6ZS10 (protein) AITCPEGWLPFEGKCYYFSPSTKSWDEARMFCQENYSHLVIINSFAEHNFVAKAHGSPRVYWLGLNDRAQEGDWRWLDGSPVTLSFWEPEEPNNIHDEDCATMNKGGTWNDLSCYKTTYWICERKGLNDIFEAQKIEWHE"
  group_label: "true"
- binder: "NKR-PIC (Mus musculus) (protein) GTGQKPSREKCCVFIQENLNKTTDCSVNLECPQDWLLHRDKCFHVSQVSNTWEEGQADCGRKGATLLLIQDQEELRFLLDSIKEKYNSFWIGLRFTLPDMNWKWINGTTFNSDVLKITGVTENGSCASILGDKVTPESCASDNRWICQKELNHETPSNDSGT"
  group_label: "false"
- binder: "CD72 ectodomain (Homo sapiens), P21854 (protein) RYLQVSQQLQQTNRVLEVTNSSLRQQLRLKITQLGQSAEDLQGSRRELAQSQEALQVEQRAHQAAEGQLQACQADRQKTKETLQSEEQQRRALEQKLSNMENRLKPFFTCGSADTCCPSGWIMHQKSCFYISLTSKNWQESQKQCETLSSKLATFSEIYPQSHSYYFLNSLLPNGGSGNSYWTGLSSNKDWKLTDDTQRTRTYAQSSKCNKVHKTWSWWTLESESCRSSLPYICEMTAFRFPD"
  group_label: "false"
- binder: "BDCA2 ex-domain (Homo sapiens) (protein) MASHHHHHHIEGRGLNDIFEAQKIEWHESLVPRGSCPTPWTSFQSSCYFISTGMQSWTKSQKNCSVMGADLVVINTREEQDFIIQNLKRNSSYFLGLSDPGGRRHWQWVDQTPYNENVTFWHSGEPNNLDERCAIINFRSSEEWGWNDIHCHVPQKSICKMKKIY"
  group_label: "false"

Evaluate pTFF2 (Sus scrofa), P01359 (protein) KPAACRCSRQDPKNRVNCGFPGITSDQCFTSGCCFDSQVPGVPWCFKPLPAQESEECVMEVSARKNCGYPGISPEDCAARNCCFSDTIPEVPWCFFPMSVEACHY : glycan array binding signal (z-score) at minimum -0.3?
true
